Listing of entries alongside the reported IC50.
Target: 5-Lipoxygenase (Rattus norvegicus)
Construct: basophile leukämische Leukozyten der Ratte in-vitro gezüchtet; endogenous in cells; whole cells suspended in phosphate buffer, stimulated with A 23187
Experiment: 5-lipoxygenase inhibition in cultured rat basophilic leukemic leukocytes (radiolabelled arachidonic acid, TLC of 5-HETE and LTB4)
Conditions: rat basophilic leukemic leukocytes in 50 mM potassium phosphate buffer pH 7.4; indomethacin 10 µM, CaCl2 2 mM, labelled arachidonic acid + ionophore A 23 187, 5 min, room temperature; formation of 5-HETE and LTB4
Description: Zur Ermittlung der 5-Lipoxygenasehemmung wurden basophile leukämische Leukozyten der Ratte in-vitro gezüchtet und nach Erreichen einer Zelldichte von ca. 10^6 Zellen pro ml bei 400 g vom Nährmedium abzentrifugiert. Der Rückstand wurde in 50 mM Kaliumphosphatpuffer vom pH 7,4 so suspendiert, daß die Zellzahl […] Zellen pro ml betrug. […]
// return numeric value only (unit: µM, not printed)

Answered examples (2):
molecule	IC50 [µM]
CCCCCNC(=O)c1cccc(C#CCCCCCCC#CCOC(C)=O)c1 [Beispiel 27a]	7
O=C(c1cccc(C#CCCCCCCC#CCO)c1)N1CCCCC1	2.3

[Q] Requested field: IC50. Item: CCCN(CCC)C(=O)c1cccc(C#CCCCCCCC#CCO)c1 [Beispiel 24g]
[A] 2.4

[Q] How about `CCOC(=O)c1cccc(C#CCCCCCCC#CCO)c1` ?
[A] 7.5

[Q] How about CN(O)C(=O)c1cccc(C#CCCCCCCC#CC(O)C2CCCCC2)c1 (stereo not drawn) ?
[A] 0.5

[Q] How about CC(=O)ON(C)C(=O)c1cccc(C#CCCCCCCC#CCO)c1 [Beispiel 24l] ?
[A] 0.5

[Q] How about COC(=O)c1cccc(C#CCC#CCC#C/C=C/C(O)C2CCCCC2)c1 (stereo not drawn) ?
[A] 1.4

[Q] How about `CN(O)C(=O)c1ccc(C#CCCCCCCC#CCO)cc1` ?
[A] 0.2

[Q] How about CC(C)N(C(=O)c1cccc(C#CCCCCCCC#CCO)c1)C(C)C [Beispiel 24n] ?
[A] 1.6

====

Molecular target: 5-Lipoxygenase (Rattus norvegicus, UniProt P12527)
Construct: basophile leukämische Leukozyten der Ratte in-vitro gezüchtet; endogenous in cells; whole cells suspended in phosphate buffer, stimulated with A 23187
Sequence (P12527 whole entry): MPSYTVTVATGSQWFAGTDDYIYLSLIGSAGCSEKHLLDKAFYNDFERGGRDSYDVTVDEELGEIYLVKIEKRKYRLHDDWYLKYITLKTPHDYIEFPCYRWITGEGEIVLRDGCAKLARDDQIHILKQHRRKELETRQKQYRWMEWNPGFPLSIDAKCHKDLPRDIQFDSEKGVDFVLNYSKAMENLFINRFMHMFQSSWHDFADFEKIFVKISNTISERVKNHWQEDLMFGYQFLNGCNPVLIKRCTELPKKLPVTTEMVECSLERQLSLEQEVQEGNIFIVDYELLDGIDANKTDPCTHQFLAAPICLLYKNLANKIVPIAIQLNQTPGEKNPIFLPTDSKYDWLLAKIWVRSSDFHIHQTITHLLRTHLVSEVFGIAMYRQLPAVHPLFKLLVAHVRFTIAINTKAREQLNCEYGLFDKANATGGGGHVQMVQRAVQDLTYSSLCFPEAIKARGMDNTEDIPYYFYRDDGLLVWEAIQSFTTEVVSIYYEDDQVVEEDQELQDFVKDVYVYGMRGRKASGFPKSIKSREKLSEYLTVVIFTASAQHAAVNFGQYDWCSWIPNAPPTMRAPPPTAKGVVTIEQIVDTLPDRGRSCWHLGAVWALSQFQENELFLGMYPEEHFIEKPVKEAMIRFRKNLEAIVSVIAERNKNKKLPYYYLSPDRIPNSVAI
Assay: 5-lipoxygenase inhibition in cultured rat basophilic leukemic leukocytes (radiolabelled arachidonic acid, TLC of 5-HETE and LTB4)
Type: cell-based, Ratte
Conditions: rat basophilic leukemic leukocytes in 50 mM potassium phosphate buffer pH 7.4; indomethacin 10 µM, CaCl2 2 mM, labelled arachidonic acid + ionophore A 23 187, 5 min, room temperature; formation of 5-HETE and LTB4
test-readout: IC50 (nM)
// return numeric value only (unit: nM, not printed)

Answered examples (2):
compound	IC50 [nM]
CCCCCC(O)/C=C/C=C\C/C=C\C/C=C\c1ccc(C(=O)OC)cc1 (stereo not drawn) [Beispiel 7]	1000
CCCCCC(O)/C=C/C#CCC#CCC#Cc1cccc(C(=O)OC)c1 (stereo not drawn) [Beispiel 1]	1700

[Q] Requested field: IC50. Item: CN(O)C(=O)c1cccc(C#CCCCCCCC#CCO)c1 [Beispiel 16]
[A] 1000
